Source listed as patent US20140121216A1.

tested on: α1 adrenergic receptors (rat cerebral cortex); assay: Binding assay, α1 adrenergic receptor ([3H]prazosin); details: compound 1×10^−6 M
result type: α1 [%] affinity test result (%)

{"columns": ["smiles str", "result type", "measured result"],
 "data": [
  ["NC(=O)c1ccccc1OCCCN1CCN(c2cccc3c2ccn3Cc2ccccc2F)CC1", "α1 [%] affinity test result", 50],
  ["O=S(=O)(c1ccccc1)n1ccc2c(N3CCN(CCCCOc4ccccc4)CC3)cccc21", "α1 [%] affinity test result", 49],
  ["O=C1CCc2ccc(OCCCN3CCN(c4cccc5c4ccn5Cc4ccccc4)CC3)cc2N1", "α1 [%] affinity test result", 68]
]}

###

biological target: H1 histaminergic receptors, human recombinant (HEK-293 cells) (Homo sapiens, UniProt P35367); construct: expressed in transfected cells; host or cells: HEK-293 cells; experiment: Binding assay, H1 histaminergic receptor ([3H]pyrilamine); details: compound 1×10^−6 M
Sequence (P35367 whole entry): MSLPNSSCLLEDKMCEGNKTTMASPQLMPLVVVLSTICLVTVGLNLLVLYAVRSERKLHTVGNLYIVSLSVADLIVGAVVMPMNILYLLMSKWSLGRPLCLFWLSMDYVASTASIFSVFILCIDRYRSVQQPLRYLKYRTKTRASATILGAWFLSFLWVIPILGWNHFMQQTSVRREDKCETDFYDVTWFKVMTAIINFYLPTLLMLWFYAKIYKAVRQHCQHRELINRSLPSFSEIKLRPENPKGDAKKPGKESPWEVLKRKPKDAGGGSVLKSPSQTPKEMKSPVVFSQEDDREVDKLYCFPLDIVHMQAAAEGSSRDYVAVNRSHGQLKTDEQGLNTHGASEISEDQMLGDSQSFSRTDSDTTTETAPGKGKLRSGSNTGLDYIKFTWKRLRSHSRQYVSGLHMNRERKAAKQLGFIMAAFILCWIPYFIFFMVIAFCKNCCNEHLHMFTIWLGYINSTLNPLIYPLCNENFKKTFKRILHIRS

{"columns": ["smiles str", "H1 [%] affinity test result [%]"],
 "data": [
  ["O=C1CCc2ccc(OCCCN3CCN(c4cccc5c4ccn5Cc4ccccc4)CC3)cc2N1", 73],
  ["O=C1CCc2ccc(OCCCN3CCN(c4cccc5c4ccn5S(=O)(=O)c4ccccc4)CC3)cc2N1", 72],
  ["O=C1CCc2ccc(OCCCCN3CCN(c4cccc5c4ccn5S(=O)(=O)c4ccccc4)CC3)cc2N1", 78]
]}

###

molecular target: 5-HT6 (h), human recombinant (CHO cells) (Homo sapiens); construct: expressed in transfected cells; host or cells: CHO cells; experiment: Cellular functional assay 5-HT6 (h) agonism; format: cell-based; settings: compound 1×10^−6 M, control 10 μM serotonin, read-out: 5-HT6-ag [%]
Sequence (P50406 whole entry): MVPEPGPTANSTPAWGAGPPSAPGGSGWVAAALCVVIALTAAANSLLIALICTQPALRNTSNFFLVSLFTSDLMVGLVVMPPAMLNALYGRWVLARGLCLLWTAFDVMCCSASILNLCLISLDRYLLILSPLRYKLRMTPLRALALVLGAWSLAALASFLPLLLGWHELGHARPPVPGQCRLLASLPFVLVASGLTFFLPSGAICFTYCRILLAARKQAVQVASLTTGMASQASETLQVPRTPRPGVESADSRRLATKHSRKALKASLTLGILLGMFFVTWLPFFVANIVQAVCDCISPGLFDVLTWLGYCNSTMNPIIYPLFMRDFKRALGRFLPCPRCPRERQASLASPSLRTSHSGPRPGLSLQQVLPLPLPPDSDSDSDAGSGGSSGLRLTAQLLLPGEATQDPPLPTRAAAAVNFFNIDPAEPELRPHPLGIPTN
Each record here notes measured activation at 1 µM.
result type: activation at 1 µM (%)

{"columns": ["compound", "result type", "measured result"],
 "data": [
  ["O=S(=O)(c1ccccc1)n1ccc2c(N3CCN(CCCOc4ccc(F)cc4)CC3)cccc21 [Compound 15]", "activation at 1 µM", 0],
  ["NC(=O)c1ccccc1OCCCN1CCN(c2cccc3c2ccn3S(=O)(=O)c2ccccc2)CC1 [Compound 72]", "activation at 1 µM", -2],
  ["O=S(=O)(c1ccccc1)n1ccc2c(N3CCN(CCCOc4ccccc4)CC3)cccc21 [Compound 12]", "activation at 1 µM", -2]
]}

###

molecular target: 5-HT6 (h), human recombinant (CHO cells) (Homo sapiens); construct: expressed in transfected cells; host or cells: CHO cells; assay: Cellular functional assay 5-HT6 (h) agonism; format: cell-based; conditions: compound 1×10^−6 M, control 10 μM serotonin, read-out: 5-HT6-ag [%]

{"columns": ["smiles str", "activation at 1 µM, %"],
 "data": [
  ["O=C1CCc2ccc(OCCCCN3CCN(c4cccc5c4ccn5Cc4ccccc4)CC3)cc2N1", -1],
  ["O=C1CCc2ccc(OCCCN3CCN(c4cccc5c4ccn5Cc4ccccc4)CC3)cc2N1", 0],
  ["O=C1CCc2ccc(OCCCN3CCN(c4cccc5c4ccn5S(=O)(=O)c4ccccc4)CC3)cc2N1", 2]
]}
